The values you see were collected from paper PMC10796322.

# maps each entry to its stoichiometry N
Target: T1, Med25-ACID_(532-680), activator interaction domain (ACID) of mediator complex subunit 25 (Arabidopsis thaliana, UniProt Q7XYY2 532-680)
T1 construct: 15N- or 13C,15N-labelled in the NMR titrations; unlabelled in ITC, CEST and stopped-flow; also called AtMed25-ACID; ACID domain; source: E. coli BL21 DE3, purified (glutathione Sepharose, TEV cleavage, cation exchange, SEC); not shown: GST, N-terminal, cleaved
T1 sequence (looked up): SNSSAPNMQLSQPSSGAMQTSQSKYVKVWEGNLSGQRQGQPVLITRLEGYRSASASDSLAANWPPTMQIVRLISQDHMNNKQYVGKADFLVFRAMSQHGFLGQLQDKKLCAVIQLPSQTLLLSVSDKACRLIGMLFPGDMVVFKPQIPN
Assay: ITC; 25 °C; 50 mM HEPES pH 7.4, 100 mM NaCl, 0.5 mM TCEP; ~1:10 cell to syringe concentration ratio, cell around 15 µM for high-affinity fragments; one-set-of-sites model; which protein was in the cell is not stated
Conditions: both partners purified

{"columns": ["BINDER", "stoichiometry N"],
 "data": [
  ["QDSLSVADYGWPNDVDQSHLDSSDMFDVDELLRDLNGDDVFAG (domain or fragment, Arabidopsis thaliana, UniProt O82132 234-276, looked up, 13C,15N-labelled in the CEST experiments; Populates cis (30 ± 1%) and trans Trp244-Pro245 isomers in the free state; also called bivalent ABS-RIM fragment; source: E. coli BL21 DE3, purified (glutathione Sepharose, TEV cleavage, SEC); not shown: GST, N-terminal, cleaved) [DREB2A_(234-276) (ABS-RIM)]", 0.98],
  ["DREB2A_(195-276) (domain or fragment, Arabidopsis thaliana, UniProt O82132 195-276, looked up, source: E. coli BL21 DE3, purified (glutathione Sepharose, TEV cleavage, SEC); not shown: GST, N-terminal, cleaved) VKADKHWLSEFEHNYWSDILKEKEKQKEQGIVETCQQQQQDSLSVADYGWPNDVDQSHLDSSDMFDVDELLRDLNGDDVFAG", 1.09],
  ["DREB2A_(195-276) E263P (domain or fragment, Arabidopsis thaliana, UniProt O82132 195-276, looked up, also called helix-disrupting DREB2A E263P variant; source: E. coli BL21 DE3, purified (glutathione Sepharose, TEV cleavage, SEC); not shown: GST, N-terminal, cleaved) VKADKHWLSEFEHNYWSDILKEKEKQKEQGIVETCQQQQQDSLSVADYGWPNDVDQSHLDSSDMFDVDPLLRDLNGDDVFAG", 1],
  ["DREB2A_(195-276) F274A (domain or fragment, Arabidopsis thaliana, UniProt O82132 195-276, looked up, source: E. coli BL21 DE3, purified (glutathione Sepharose, TEV cleavage, SEC); not shown: GST, N-terminal, cleaved) VKADKHWLSEFEHNYWSDILKEKEKQKEQGIVETCQQQQQDSLSVADYGWPNDVDQSHLDSSDMFDVDELLRDLNGDDVAAG", 0.86],
  ["DREB2A_(195-276) F259A (domain or fragment, Arabidopsis thaliana, UniProt O82132 195-276, looked up, source: E. coli BL21 DE3, purified (glutathione Sepharose, TEV cleavage, SEC); not shown: GST, N-terminal, cleaved) VKADKHWLSEFEHNYWSDILKEKEKQKEQGIVETCQQQQQDSLSVADYGWPNDVDQSHLDSSDMADVDELLRDLNGDDVFAG", 1.2],
  ["DREB2A_(195-276) V239A (domain or fragment, Arabidopsis thaliana, UniProt O82132 195-276, looked up, source: E. coli BL21 DE3, purified (glutathione Sepharose, TEV cleavage, SEC); not shown: GST, N-terminal, cleaved) VKADKHWLSEFEHNYWSDILKEKEKQKEQGIVETCQQQQQDSLSAADYGWPNDVDQSHLDSSDMFDVDELLRDLNGDDVFAG", 0.95],
  ["DREB2A_(151-335) (domain or fragment, Arabidopsis thaliana, UniProt O82132 151-335, looked up, also called C-terminal intrinsically disordered region (IDR) of DREB2A; source: E. coli BL21 DE3, purified (glutathione Sepharose, TEV cleavage, SEC); not shown: GST, N-terminal, cleaved) VCTVETPGCVHVKTEDPDCESKPFSGGVEPMYCLENGAEEMKRGVKADKHWLSEFEHNYWSDILKEKEKQKEQGIVETCQQQQQDSLSVADYGWPNDVDQSHLDSSDMFDVDELLRDLNGDDVFAGLNQDRYPGNSVANGSYRPESQQSGFDPLQSLNYGIPPFQLEGKDGNGFFDDLSYLDLEN", 1.1],
  ["DREB2A_(195-276) L237A (domain or fragment, Arabidopsis thaliana, UniProt O82132 195-276, looked up, source: E. coli BL21 DE3, purified (glutathione Sepharose, TEV cleavage, SEC); not shown: GST, N-terminal, cleaved) VKADKHWLSEFEHNYWSDILKEKEKQKEQGIVETCQQQQQDSASVADYGWPNDVDQSHLDSSDMFDVDELLRDLNGDDVFAG", 1.03],
  ["QDSLSVADYGWANDVDQSHLDSSDMFDVDELLRDLNGDDVFAG (domain or fragment, Arabidopsis thaliana, UniProt O82132 234-276, looked up, Isotope-labelled in the CEST experiments; also called ABS-RIM_(P245A); DREB2A_(P245A); source: E. coli BL21 DE3, purified (glutathione Sepharose, TEV cleavage, SEC); not shown: GST, N-terminal, cleaved) [DREB2A_(234-276,P245A)]", 1.26]
]}
